Assignment: determine reported pIC50 for the given binders.
- assay system: P2L-2Ca
- test description: competitive EIA: unlabeled antigen varied against HRP-labeled 19P2 ligand (17-31) on P2L-2C
No end group written: not given here.
Give bare numbers, as −log10 of the molar value.

Field: example entries. Status: answers known.
binder | reading
SRAHQHSMEIRTPDINPAWYAGRGIRPVGRF-NH2 [Bovine 19P2 ligand (1-31)] | 7.30
SRTHRHSMEIRTPDINPAWYASRGIRPVGRX (C-terminal amide) [Human 19P2 ligand (1-31)] | 8.82

Moving on to the next binder.
**Query** Let me know recorded pIC50 for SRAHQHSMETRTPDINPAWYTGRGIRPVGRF-NH2 [Rat 19P2 ligand (1-31)] , thanks.
**Result** 6.70
